Examples of compounds with documented MIC follow.
system: Streptococcus pneumoniae 62; assay: microbe, parasite or virus in culture; type: cell-based; conditions: 37° C., 24 h, read-out: Minimum Inhibitory Concentration, MIC
Could you give me the number in µM? Just the number is fine.

Use these answered entries as a reference point.
CCc1nn2c(=O)c(C)c(-c3ccc(C(F)(F)F)cc3)[nH]c2c1-c1ccc(Cl)cc1Cl; 160
Nc1nc(-c2ccccc2)nc2c1cnn2-c1ccccc1; 140

stdin: Item: CCc1nn2c(=O)cc(-c3ccc(C#N)cc3)[nH]c2c1-c1ccc(Cl)cc1Cl Test system: Streptococcus pneumoniae 62 Read-out: MIC Value: ?
stdout: 10.5

stdin: Item: Cc1nn2c(=O)cc(-c3ccc(C(F)(F)F)nc3)[nH]c2c1-c1ccc(Cl)cc1Cl Test system: Streptococcus pneumoniae 62 Read-out: MIC Value: ?
stdout: 0.63

stdin: Item: Cc1nn2c(=O)cc(-c3ccc(C#N)cc3)[nH]c2c1-c1ccc(Cl)cc1Cl Test system: Streptococcus pneumoniae 62 Read-out: MIC Value: ?
stdout: 0.25

stdin: Item: Cc1nn2c(=O)cc(-c3ccc(C(F)(F)F)cc3)[nH]c2c1-c1ccc(Cl)cc1Cl Test system: Streptococcus pneumoniae 62 Read-out: MIC Value: ?
stdout: 0.19

stdin: Item: Cc1nn2c(=O)cc(-c3ccc(C#N)cc3)[nH]c2c1-c1ccc(C(F)(F)F)cc1 Test system: Streptococcus pneumoniae 62 Read-out: MIC Value: ?
stdout: 10.5

stdin: Item: Cc1nn2c(=O)c(C)c(-c3ccc(C#N)cc3)[nH]c2c1-c1ccc(C(F)(F)F)cc1 Test system: Streptococcus pneumoniae 62 Read-out: MIC Value: ?
stdout: 0.63

stdin: Item: O=c1[nH]c(-c2ccc(C(F)(F)F)cc2)nc2cc(Cl)ccc12 Test system: Streptococcus pneumoniae 62 Read-out: MIC Value: ?
stdout: 100

stdin: Item: O=C1C(c2ccccc2)C(O)=Nc2cc(-c3ccc(C(F)(F)F)cc3)nn21 (stereo not drawn) Test system: Streptococcus pneumoniae 62 Read-out: MIC Value: ?
stdout: 0.25

stdin: Item: Cc1c(-c2ccc(C#N)cc2)[nH]c2c(-c3ccc(Cl)cc3Cl)c(-c3ccccc3)nn2c1=O Test system: Streptococcus pneumoniae 62 Read-out: MIC Value: ?
stdout: 10.5

stdin: Item: Cc1c(-c2ccc(C(F)(F)F)cc2)[nH]c2c(-c3ccc(Cl)cc3Cl)c(C3CC3)nn2c1=O Test system: Streptococcus pneumoniae 62 Read-out: MIC Value: ?
stdout: 0.25
